tested_on: StCA1
Construct: recombinant, obtained in-house
measurement_protocol: stopped-flow CO2 hydrase assay
Type: biochemical, Salmonella enterica subsp. enterica serovar Typhimurium
assay_setup: CO2 hydration, […] TRIS pH […] Na2SO4, […] min preincubation at room temperature
Param label: returns Satisfied when Ki < 80 nM, returns Not satisfied otherwise, including exact equality.

- compound: "CC1SC(Nc2ccc(S(N)(=O)=O)cc2)=NC1=O (racemic)"
  label_value: "Not satisfied"
- compound: "CCCC1SC(Nc2ccc(S(N)(=O)=O)cc2)=NC1=O (racemic)"
  label_value: "Not satisfied"
- compound: "NS(=O)(=O)c1ccc(NC2=NC(=O)C(CCBr)S2)cc1 (racemic)"
  label_value: "Satisfied"
- compound: "NS(=O)(=O)c1ccc(NC2=NC(=O)C(F)S2)cc1 (racemic)"
  label_value: "Not satisfied"
- compound: "CCC1SC(Nc2ccc(S(N)(=O)=O)cc2)=NC1=O (racemic)"
  label_value: "Not satisfied"
- compound: "NS(=O)(=O)c1ccc(NC2=NC(=O)C(c3ccccc3)S2)cc1 (racemic)"
  label_value: "Not satisfied"
- compound: "NS(=O)(=O)c1ccc(NC2=NC(=O)CS2)cc1"
  label_value: "Not satisfied"
- compound: "CCCCC1SC(Nc2ccc(S(N)(=O)=O)cc2)=NC1=O (racemic)"
  label_value: "Satisfied"
- compound: "CCCCCCC1SC(Nc2ccc(S(N)(=O)=O)cc2)=NC1=O (racemic)"
  label_value: "Not satisfied"

Value source: paper PMC9848287
